// provenance: the supplement of paper PMC11061612

- Test system: NOS-1 (Osteosarcoma)
- Assay remarks: Bliss excess, mean over the matrix (fraction); higher = more synergy
Observed property: Bliss excess

Molecule | Bliss excess
CN(CCO)CC[C@H](CSc1ccccc1)Nc1ccc(S(=O)(=O)NC(=O)c2ccc(N3CCC([C@@H](O)c4ccccc4-c4ccc(Cl)cc4)CC3)cc2)cc1S(=O)(=O)C(F)(F)F [AZD4320] + Cc1cc2ncnn2cc1Nc1ncc2c(n1)n(C1CCOCC1)c(=O)n2C [AZD7648] (first compound max 1 µM, 7x7, partner max 10 µM) | 0.0375

The value of Bliss excess measured for the molecule Cc1cc2ncnn2cc1Nc1ncc2c(n1)n(C1CCOCC1)c(=O)n2C [AZD7648] + C[C@@H]1COCCN1C2=NC(=NC(=C2)C3(CC3)[S@](=N)(=O)C)C4=C5C=CNC5=NC=C4 [AZD6738] (first compound max 10 µM, 7x7, partner max 10 µM) turned out to be 0.0761

The value of Bliss excess measured for the molecule Cc1c2c(nn1C)CSCc1cc(n(C)n1)CSc1cc(c3ccccc3c1)OCCCc1c(C(=O)O)n(C)c3c-2c(Cl)ccc13 [AZD5991] + C[C@@H]1COCCN1C2=NC(=NC(=C2)C3(CC3)[S@](=N)(=O)C)C4=C5C=CNC5=NC=C4 [AZD6738] (first compound max 1 µM, 7x7, partner max 10 µM) turned out to be 0.0854

The value of Bliss excess measured for the molecule COc1cccc(OCCCN)c1-c1cc(Nc2cnc(C#N)cn2)n[nH]1 [Prexasertib] + CN(C)CCCOc1ccc(-c2ccc3ncc4c(c3c2)n(C2CCOCC2)c(=O)n4C)cn1 [AZD0156] (first compound max 1 µM, 7x7, partner max 1 µM) turned out to be 0.0551

---

- Tested on: COLO-205 (Colorectal Carcinoma)
- Assay remarks: combination Emax (second highest fraction inhibited in the dose matrix, 72 h); higher = more inhibition; extreme values may be limits of the assay
Observed property: combination Emax
Write the value as a bare number.

Use the examples below as a reference point.
Compound | combination Emax
NC1(C(=O)N[C@@H](CCO)c2ccc(Cl)cc2)CCN(c2ncnc3[nH]ccc23)CC1 [Capivasertib] + COc1nnc2ccc(N3CCC(c4ccc(OCCN5CCN(C)C(=O)[C@H]5C)cc4)CC3)nn12 [AZD5153] (first compound max 10 µM, 7x7, partner max 1 µM) | 0.808
Cc1c2c(nn1C)CSCc1cc(n(C)n1)CSc1cc(c3ccccc3c1)OCCCc1c(C(=O)O)n(C)c3c-2c(Cl)ccc13 [AZD5991] + C[C@@H]1COCCN1C2=NC(=NC(=C2)C3(CC3)[S@](=N)(=O)C)C4=C5C=CNC5=NC=C4 [AZD6738] (first compound max 1 µM, 7x7, partner max 10 µM) | 0.511

Please examine the following record next.
The value of combination Emax measured for the compound Cc1c2c(nn1C)CSCc1cc(n(C)n1)CSc1cc(c3ccccc3c1)OCCCc1c(C(=O)O)n(C)c3c-2c(Cl)ccc13 [AZD5991] + C[C@@H](Nc1cc(F)cc(F)c1)c1cc(C(=O)N(C)C)cc2c(=O)cc(N3CCOCC3)oc12 [AZD8186] (first compound max 1 µM, 7x7, partner max 3 µM) turned out to be 0.14

---

- System: CCRF-CEM (T-Lymphoblastic Leukemia)
- Assay remarks: combination Emax (second highest fraction inhibited in the dose matrix, 72 h); higher = more inhibition; extreme values may be limits of the assay
Observed property: combination Emax
Write the value as a bare number.

Molecule | combination Emax
CC1(C)CCC(CN2CCN(c3ccc(C(=O)NS(=O)(=O)c4ccc(NCC5CCOCC5)c([N+](=O)[O-])c4)c(Oc4cnc5[nH]ccc5c4)c3)CC2)=C(c2ccc(Cl)cc2)C1 [Venetoclax] + CCN(CCO)CCCOc1ccc2c(Nc3cc(CC(=O)Nc4cccc(F)c4)[nH]n3)ncnc2c1 [AZD2811] (first compound max 1 µM, 7x7, partner max 1 µM) | 1
Cc1cc2ncnn2cc1Nc1ncc2c(n1)n(C1CCOCC1)c(=O)n2C [AZD7648] + CCN(CCO)CCCOc1ccc2c(Nc3cc(CC(=O)Nc4cccc(F)c4)[nH]n3)ncnc2c1 [AZD2811] (first compound max 10 µM, 7x7, partner max 1 µM) | 1
Cc1c2c(nn1C)CSCc1cc(n(C)n1)CSc1cc(c3ccccc3c1)OCCCc1c(C(=O)O)n(C)c3c-2c(Cl)ccc13 [AZD5991] + CN(C)CCCOc1ccc(-c2ccc3ncc4c(c3c2)n(C2CCOCC2)c(=O)n4C)cn1 [AZD0156] (first compound max 1 µM, 7x7, partner max 1 µM) | 0.48

Please examine the following record next.
The value of combination Emax measured for the molecule NC1(C(=O)N[C@@H](CCO)c2ccc(Cl)cc2)CCN(c2ncnc3[nH]ccc23)CC1 [Capivasertib] + Cn1cnc2c(F)c(Nc3ccc(Br)cc3Cl)c(C(=O)NOCCO)cc21 [Selumetinib] (first compound max 10 µM, 7x7, partner max 10 µM) turned out to be 0.485

---

- Tested on: KELLY (Neuroblastoma)
- Assay remarks: Bliss excess, mean over the matrix (fraction); higher = more synergy
Observed property: Bliss excess
Write the value as a bare number.

Compound | Bliss excess
COc1cccc(OCCCN)c1-c1cc(Nc2cnc(C#N)cn2)n[nH]1 [Prexasertib] + Cc1cc2ncnn2cc1Nc1ncc2c(n1)n(C1CCOCC1)c(=O)n2C [AZD7648] (first compound max 1 µM, 7x7, partner max 10 µM) | -0.0027

Please examine the following record next.
The value of Bliss excess measured for the compound Cc1c2c(nn1C)CSCc1cc(n(C)n1)CSc1cc(c3ccccc3c1)OCCCc1c(C(=O)O)n(C)c3c-2c(Cl)ccc13 [AZD5991] + CCN(CCO)CCCOc1ccc2c(Nc3cc(CC(=O)Nc4cccc(F)c4)[nH]n3)ncnc2c1 [AZD2811] (first compound max 1 µM, 7x7, partner max 1 µM) turned out to be 0.0071

---

- Tested on: HCC-78 (Lung Adenocarcinoma)
- Assay remarks: combination Emax (second highest fraction inhibited in the dose matrix, 72 h); higher = more inhibition; extreme values may be limits of the assay
Observed property: combination Emax
Write the value as a bare number.

Molecule | combination Emax
Cn1cnc2c(F)c(Nc3ccc(Br)cc3Cl)c(C(=O)NOCCO)cc21 [Selumetinib] + C[C@@H]1COCCN1C2=NC(=NC(=C2)C3(CC3)[S@](=N)(=O)C)C4=C5C=CNC5=NC=C4 [AZD6738] (first compound max 10 µM, 7x7, partner max 10 µM) | 0.537

Please examine the following record next.
// returns combination Emax for CN(CCO)CC[C@H](CSc1ccccc1)Nc1ccc(S(=O)(=O)NC(=O)c2ccc(N3CCC([C@@H](O)c4ccccc4-c4ccc(Cl)cc4)CC3)cc2)cc1S(=O)(=O)C(F)(F)F [AZD4320] + Cn1cnc2c(F)c(Nc3ccc(Br)cc3Cl)c(C(=O)NOCCO)cc21 [Selumetinib] (first compound max 1 µM, 7x7, partner max 3 µM) with HCC-78 (Lung Adenocarcinoma); value = 0.305

---

- Tested on: B-CPAP (Thyroid Gland Carcinoma)
- Assay remarks: combination Emax (second highest fraction inhibited in the dose matrix, 72 h); higher = more inhibition; extreme values may be limits of the assay
Observed property: combination Emax
Write the value as a bare number.

Molecule | Target under test | combination Emax
Cn1cnc2c(F)c(Nc3ccc(Br)cc3Cl)c(C(=O)NOCCO)cc21 [Selumetinib] + C=CCn1c(=O)c2cnc(Nc3ccc(N4CCN(C)CC4)cc3)nc2n1-c1cccc(C(C)(C)O)n1 [AZD1775] (first compound max 10 µM, partner max 1 µM) | B-CPAP (Thyroid Gland Carcinoma) | 0.472
Cn1cnc2c(F)c(Nc3ccc(Br)cc3Cl)c(C(=O)NOCCO)cc21 [Selumetinib] + C[C@@H]1COCCN1C2=NC(=NC(=C2)C3(CC3)[S@](=N)(=O)C)C4=C5C=CNC5=NC=C4 [AZD6738] (first compound max 10 µM, 7x7, partner max 10 µM) | B-CPAP (Thyroid Gland Carcinoma) | 0.421
COc1cccc(OCCCN)c1-c1cc(Nc2cnc(C#N)cn2)n[nH]1 [Prexasertib] + CN(C)CCCOc1ccc(-c2ccc3ncc4c(c3c2)n(C2CCOCC2)c(=O)n4C)cn1 [AZD0156] (first compound max 1 µM, 7x7, partner max 1 µM) | B-CPAP (Thyroid Gland Carcinoma) | 0.686

// returns combination Emax for CC1(C)CCC(CN2CCN(c3ccc(C(=O)NS(=O)(=O)c4ccc(NCC5CCOCC5)c([N+](=O)[O-])c4)c(Oc4cnc5[nH]ccc5c4)c3)CC2)=C(c2ccc(Cl)cc2)C1 [Venetoclax] + COc1cc(Nc2ncc3c(n2)-c2ccc(Cl)cc2C(c2c(F)cccc2OC)=NC3)ccc1C(=O)O [Alisertib] (first compound max 1 µM, 7x7, partner max 10 µM) with B-CPAP (Thyroid Gland Carcinoma); value = 0.598

// returns combination Emax for COc1nnc2ccc(N3CCC(c4ccc(OCCN5CCN(C)C(=O)[C@H]5C)cc4)CC3)nn12 [AZD5153] + Cn1cnc2c(F)c(Nc3ccc(Br)cc3Cl)c(C(=O)NOCCO)cc21 [Selumetinib] (first compound max 1 µM, 7x7, partner max 10 µM) with B-CPAP (Thyroid Gland Carcinoma); value = 0.603

// returns combination Emax for CN(C)CCCOc1ccc(-c2ccc3ncc4c(c3c2)n(C2CCOCC2)c(=O)n4C)cn1 [AZD0156] + CCN(CCO)CCCOc1ccc2c(Nc3cc(CC(=O)Nc4cccc(F)c4)[nH]n3)ncnc2c1 [AZD2811] (first compound max 1 µM, 7x7, partner max 1 µM) with B-CPAP (Thyroid Gland Carcinoma); value = 0.189

// returns combination Emax for C=CCn1c(=O)c2cnc(Nc3ccc(N4CCN(C)CC4)cc3)nc2n1-c1cccc(C(C)(C)O)n1 [AZD1775] + O=C(c1cc(Cc2n[nH]c(=O)c3ccccc23)ccc1F)N1CCN(C(=O)C2CC2)CC1 [Olaparib] (first compound max 1 µM, partner max 10 µM) with B-CPAP (Thyroid Gland Carcinoma); value = 0.456

// returns combination Emax for CS(=O)(=O)CCNCc1ccc(-c2ccc3ncnc(Nc4ccc(OCc5cccc(F)c5)c(Cl)c4)c3c2)o1 [Lapatinib] + NC1(c2ccc(-c3nc4ccn5c(=O)[nH]nc5c4cc3-c3ccccc3)cc2)CCC1 [MK-2206] (first compound max 10 µM, 7x7, partner max 10 µM) with B-CPAP (Thyroid Gland Carcinoma); value = 0.909

// returns combination Emax for CCN(CCO)CCCOc1ccc2c(Nc3cc(CC(=O)Nc4cccc(F)c4)[nH]n3)ncnc2c1 [AZD2811] + O=C(c1cc(Cc2n[nH]c(=O)c3ccccc23)ccc1F)N1CCN(C(=O)C2CC2)CC1 [Olaparib] (first compound max 1 µM, 7x7, partner max 10 µM) with B-CPAP (Thyroid Gland Carcinoma); value = 0.231
